Values compiled from PubChem BioAssay (NCI).

# measurement.notes: NCI Yeast Anticancer Drug Screen. Data for the bub3 strain (AID 167)
# measurement.conditions: S. cerevisiae bub3 mutant strain, at 50.0 µM, stronger effect = higher value
The panel holds about 79,000 compounds, 15% with a hit somewhere; the sample as a whole holds those more often.
Reported growth inhibition values for the following compounds.
readout.type: growth inhibition (%)

1. CC#Cc1c(C#CC)c(OC)c2c(c1OC)C(=O)c1ccccc1C2=O :: -8.2
2. Cc1cc(C)[n+](C)c(/C=C/c2cccc([N+](=O)[O-])c2)n1 :: 3.4
3. O=c1[nH]cnc2c1CN(c1ccc(Cl)cc1)C2 :: -19.2
4. COc1ccc(COC(=O)NC2CCCCC2)cc1OC :: 37
5. C/C(N=NS(=O)(=O)c1ccc(C)cc1)=C1\C=CC=CN1O :: -2.85
6. FC(F)(F)C(F)(F)c1nc(C(F)(F)C(F)(F)C(F)(F)c2noc(C(F)(F)C(F)(F)F)n2)no1 :: -3
7. CCCCC(CC)C(C(C)=O)N(C)C (stereo unspecified) :: 4.45
8. Nc1ccc(/C=C/c2ccc(N)cc2)cc1 :: 8.9
9. CS(=O)(=O)CC(O)(c1ccccc1)c1ccccc1 :: 1.55
10. C=C1C(=O)O[C@@H]2C[C@]3(C)[C@@H](C[C@H]12)[C@](C)(O)CC[C@@H]3O :: 7.5
11. CC#CC(C)(C)N(C)C :: 12.8
12. CCCCCCCCCCCC(=O)c1c(O)cccc1O :: 10.7
13. Cc1ccccc1C(=O)OC1CCCC1 :: 8.1
14. O=[N+]([O-])c1ccc(-c2cc3ccccn3c2)cc1 :: 11.8
15. C#CCN(N=O)C(=O)NC(CCCCNC(=O)OCc1ccccc1)C(=O)OCc1ccccc1 (stereo unspecified) :: 14.2
16. CC(C)CCOC(=O)NC(Nc1ccc(F)cc1)(C(F)(F)F)C(F)(F)F :: -5.2
17. CN(/N=C/c1ccccc1)c1nnnn1-c1ccccc1 :: 0.6
18. O=C(NCc1ccccc1)c1cc(Cl)ccc1O :: 0.95
19. CC1OCC2CC3(O1)OC3C(COCC1OC3COC(C)OC4(C3)OC14)O2 (stereo unspecified) :: -3.15
20. C/C(CC(O)(C(F)(F)Cl)C(F)(F)Cl)=N\NC(N)=S :: -0.55
21. COC(=O)C(CNc1ccc(S(N)(=O)=O)cc1)=[N+]=[N-] :: 6.25
22. O=C(O)c1cc(Cl)cc([N+](=O)[O-])c1 :: 23
23. O=C(NNC(=O)c1ccc(Cl)cc1Cl)c1ccccc1 :: -9.2
24. C=CCC(OCCC)c1ccc2c(c1)OCO2 (stereo unspecified) :: 3.4
25. Cc1nc2scc(C)c2c(=S)[nH]1 :: -11.8
26. NC(CC1C=CC=CC1)C(=O)O (stereo unspecified) :: -4.05
